src = ChEMBL document CHEMBL1201862

Tested on: HT-29
assay: NCI tumour cell line growth inhibition, 48 h
Activity calls are given as the source filed them. Cut-off read from the data, not from the text of the source: active = GI50 up to about 1.1 µM and inactive = higher.
Measured GI50, listed per entry for reference.

These solved cases illustrate the format of a correct answer.
What value of GI50 has been recorded for this entry: CC(=O)Nc1ccc(C2C(C(=O)Nc3ccccc3)=C(C)NC(C)=C2C(=O)Nc2ccccc2)cc1 > 100 µM (inactive)

What value of GI50 has been recorded for this entry: COC(=O)/C(C#N)=C1\CCC(OC)N1C (configuration not stated) > 100 µM (inactive)

// GI50 lookup, key: CCCCCCCCCCC/C=C(/C(=O)CCCO[Si](C)(C)C(C)(C)C)C(=O)OC > 100 µM (inactive)

GET /values?readout=GI50&item= CCN(CC)C(=O)CCn1ccc(=O)[nH]c1=O > 100 µM (inactive)

Requested read-out: GI50. Entry: CCN(CC)CCN(C)CCc1ccc(Br)cc1 24.9 µM (inactive)

I would be grateful if you could share the reported GI50 for CN(C)C(=O)N(CCCl)N=O . > 100 µM (inactive)

Next:
Any idea what GI50 was measured for Nc1nc(N)c2cc(-c3cc4ccccc4[nH]3)ccc2n1 ? 15.5 µM (inactive)

Entry COc1ccc2c(c1)CN1C(=N2)CSC1c1cccc(Br)c1 (configuration not stated) : reported GI50 = ? 20 µM (inactive)

Would you kindly share the measured GI50 for N#CC1C(=S)NC(c2ccccc2)=CC12CCCCC2 (configuration not stated) ? 27.6 µM (inactive)

Any idea what GI50 was measured for CSC(=O)C[C@@]12O[C@@H]([C@@H](C)C3CCC4[C@@H]5C(O)CC6=CC(=O)C=C[C@]6(C)C5CC[C@@]43C)C[C@](C)(O1)C(C)(C)O2 (some centres not stated) ? 14.5 µM (inactive)

# get_value(readout='GI50', item= COc1ccc(-n2c3c(c4cc(O)ccc42)C(=O)c2ccccc2C3=O)cc1 ) 3.94 µM (inactive)

Given the compound O=S(=O)(O)c1ccc(/N=N/c2c(O)ccc3ccccc23)cc1 , what is its reported GI50? > 100 µM (inactive)

Tell me the measured GI50 of CN(C)c1cccc(NC2=NCCO2)c1 , please. 19.2 µM (inactive)

---

Consider the following compounds and their measured GI50 readings.
System: HT-29
assay: NCI tumour cell line growth inhibition, 48 h
Calls of active or inactive are those of the source. No stated cut-off is given here; in the data, active = GI50 up to about 1.1 µM and inactive = higher.

Consider the compound shown here: S=c1nc(N2CCCCC2)c2cn[nH]c2[nH]1 What is its recorded GI50? 41.8 µM (inactive)

Returns the measured GI50 for the input compound. Input: COc1c2c(nc3ccccc13)-c1cc(C(CC(=O)OC(C)(C)C)C(=O)OC(C)C)c(CO)c(=O)n1C2 (configuration not stated) 58.5 µM (inactive)

# query: GI50 of entry Nc1ncc2c(n1)-c1ccccc1OC2N1CCCCC1 (configuration not stated) > 100 µM (inactive)

Fill in: GI50 of Cc1ccc(C(=N)Nc2ccccc2)cc1 is ___ 69.7 µM (inactive)

Requested read-out: GI50. Entry: CCOC(=O)c1csc(CCCCCCc2nc(C(=O)OCC)cs2)n1 > 70 µM (inactive)

***
So what does the record say about GI50 for NC(C(=O)O)c1cc(O)no1 (configuration not stated) ? > 100 µM (inactive)

// query GI50 value for entry c1ccc(CN2CCC3(CC2)SSC2(CCN(Cc4ccccc4)CC2)S3)cc1 17.6 µM (inactive)

Which GI50 is reported for this compound? CC(C)Cn1cnnc1NS(=O)(=O)c1cc(C(=O)NN)c(Cl)cc1S > 10 µM (inactive)

Using the record for CC1=C(O)C(=O)c2cn(C)cc2C1=O , report its GI50. > 100 µM (inactive)

Could you share which GI50 value was measured for Cc1ccc([S+]([O-])c2sccc2C=O)cc1 (configuration not stated) ? 19.8 µM (inactive)

Look up GI50 for this compound: COc1ccc(C2CC(C)(O)Oc3cc4c(cc32)OCO4)cc1 (configuration not stated) 24.9 µM (inactive)

Which measured GI50 value corresponds to CCCCCCCCCCCC[S+](C)C ? 3.41 µM (inactive)
